Molecular target: Slp-4 C2A domain (synaptotagmin-like protein 4/granuphilin) (Homo sapiens)
Construct: gene SYTL4; C2A domain G352-S494; N-terminal GST cleaved by thrombin; E. coli BL21(DE3); cation-exchange purified, unmodified main peak
Assay: Trp-to-dansyl FRET, competitive displacement of protein from dansyl-PE liposomes
Type: binding
Conditions: read-out: IC50 for IP6 (μM) ^a
measurement type: IC50 (µM)
Expressed in µM, but write only the number.

Endpoint output: IC50 of `O=P(O)(O)O[C@H]1[C@H](OP(=O)(O)O)[C@@H](OP(=O)(O)O)[C@H](OP(=O)(O)O)[C@@H](OP(=O)(O)O)[C@H]1OP(=O)(O)O` . Value?
620
